- Experiment Description: CellTiter-Glo cell viability assay (cytotoxicity), HEK293
- Type: cell-based
- Condition Description: human, HEK293 embryonic kidney cells; HEK293, 72 h treatment; read-out: In vitro cytotoxicity EC50 ± SD HEK293
Would you mind telling me the reported EC50 at 72 h of each entry?
Give bare numbers, in µM.

molecule="COC1=CC(c2ccc[nH]2)=N[C@@]12O[C@H](C)C[C@H]1CCCCCCCc3[nH]c(cc3C(C)=O)[C@@H]12 [compound 9, 12-acetyl premarineosin A]" assay_readout="EC50 at 72 h" readout_value=6.59
molecule="COC1=CC(c2ccc[nH]2)=N[C@@]12O[C@H](C)C[C@H]1CCCCCCCc3[nH]c(cc3C(C)(c3cc4[nH]c3CCCCCCC[C@@H]3C[C@@H](C)O[C@@]5(N=C(c6ccc[nH]6)C=C5OC)[C@@H]43)C(F)(F)F)[C@@H]12 [compound 6, Trifluoromethyl-bridged premarineosin A]" assay_readout="EC50 at 72 h" readout_value=11

Then this molecule:
Check the records and state EC50 at 72 h for COC1=CC(c2ccc[nH]2)=N[C@@]12O[C@H](C)C[C@H]1CCCCCCCc3[nH]c(cc3C(C)(O)C(F)(F)F)[C@@H]12 (stereo partly drawn) [compound 7, 12-trifluoropropanol premarineosin A] 4.21

----------
- System: Plasmodium falciparum Dd2 (chloroquine-resistant)
- Experiment Description: In vitro antimalarial growth inhibition assay (SYBR green), Dd2
- Format: cell-based
- Condition Description: Plasmodium falciparum; Dd2 chloroquine-resistant, 48 h treatment; read-out: In vitro activity EC50 ± SD P. falciparum Dd2
Would you mind telling me the reported pEC50 of each entry?
One number for each entry, as −log10 of the molar value.

molecule="COC1=CC(c2ccc[nH]2)=N[C@@]12O[C@H](C)C[C@H]1CCCCCCCc3ccc([nH]3)[C@@H]12 [compound 3, (−)-premarineosin A]" readout_value=9.00
molecule="COC1=CC(c2ccc[nH]2)=N[C@@]12O[C@H](C)C[C@H]1CCCCCCCc3[nH]c(cc3C=O)[C@@H]12 [compound 8, 12-formyl premarineosin A]" readout_value=6.65
molecule="COC1=CC(c2ccc[nH]2)=N[C@@]12O[C@H](C)C[C@H]1CCCCCCCc3[nH]c(cc3CO)[C@@H]12 [compound 10, 12-hydroxymethyl-premarineosin A]" readout_value=6.15

Look up pEC50 for the entries below, preserving their order.
1. COC1=CC(c2ccc[nH]2)=N[C@@]12O[C@H](C)C[C@H]1CCCCCCCc3[nH]c(cc3C(C)(O)C(F)(F)F)[C@@H]12 (some centres unmarked) [compound 7, 12-trifluoropropanol premarineosin A]
2. C[C@H]1[C@H](OC(=O)CCC(=O)O)O[C@@H]2O[C@@]3(C)CC[C@H]4[C@H](C)CC[C@@H]1[C@@]24OO3 [Artesunate, reference compound]

7.06
8.10

----------
- Tested on: Plasmodium falciparum 3D7 (chloroquine-sensitive)
- Experiment Description: In vitro antimalarial growth inhibition assay (SYBR green), 3D7
- Type: cell-based
- Condition Description: Plasmodium falciparum, 3D7, 48 h, read-out: In vitro activity EC50 ± SD P. falciparum 3D7
Would you mind telling me the reported pEC50 of each entry?
Give bare numbers, as −log10 of the molar value.

Would you please look over these solved cases?
compound="CCN(CC)CCCC(C)Nc1ccnc2cc(Cl)ccc12 (stereo not shown) [Chloroquine, reference compound]" tested_system="Plasmodium falciparum 3D7 (chloroquine-sensitive)" assay_readout=pEC50 readout_value=7.39
compound=COC1=CC(c2ccc[nH]2)=N[C@@]12O[C@H](C)C[C@H]1CCCCCCCc3[nH]c(cc3Br)[C@@H]12 tested_system="Plasmodium falciparum 3D7 (chloroquine-sensitive)" assay_readout=pEC50 readout_value=8.70
compound=COC1=CC(c2ccc[nH]2)=N[C@@]12O[C@H](C)C[C@H]1CCCCCCCc3[nH]c(cc3C(C)(C)c3cc4[nH]c3CCCCCCC[C@@H]3C[C@@H](C)O[C@@]5(N=C(c6ccc[nH]6)C=C5OC)[C@@H]43)[C@@H]12 tested_system="Plasmodium falciparum 3D7 (chloroquine-sensitive)" assay_readout=pEC50 readout_value=5.72

Would you please give the reported pEC50 of COC1=CC(c2ccc(Br)[nH]2)=N[C@@]12O[C@H](C)C[C@H]1CCCCCCCc3ccc([nH]3)[C@@H]12 with Plasmodium falciparum 3D7 (chloroquine-sensitive)? 6.33

----------
- Experiment Description: CellTiter-Glo cell viability assay (cytotoxicity), MOLT4
- Type: cell-based
- Condition Description: human, MOLT-4 T-cell leukemia (T lymphoblast) cells; MOLT4, 72 h treatment; read-out: In vitro cytotoxicity EC50 ± SD MOLT4
- Experimental: Cells were obtained from the following sources: HEK293 (ATCC, cat # CRL-1573), MOLT-4 (ATCC, cat # CRL-1582). […] Cell number and cell viability were measured using the Countess Automated Cell Counter (Invitrogen) using Trypan blue stain (Invitrogen, cat # T10282). […] The CTG assay (Promega, cat # G7572) was used to quantify cellular ATP according to manufacturer protocols. […]
Would you mind telling me the reported EC50 at 72 h of each entry?
Answers are plain numbers, in µM.

Would you please look over these solved cases?
molecule=COC1=CC(c2ccc[nH]2)=N[C@@]12O[C@H](C)C[C@H]1CCCCCCCc3[nH]c(cc3C(C)(c3cc4[nH]c3CCCCCCC[C@@H]3C[C@@H](C)O[C@@]5(N=C(c6ccc[nH]6)C=C5OC)[C@@H]43)C(F)(F)F)[C@@H]12 assay_readout="EC50 at 72 h" unit_label=µM readout_value=6.51
molecule=COC1=CC(c2ccc[nH]2)=N[C@@]12O[C@H](C)C[C@H]1CCCCCCCc3[nH]c(cc3C(C)=O)[C@@H]12 assay_readout="EC50 at 72 h" unit_label=µM readout_value=3.67

Check the records and state EC50 at 72 h for COC1=CC(c2ccc[nH]2)=N[C@@]12O[C@H](C)C[C@H]1CCCCCCCc3[nH]c(cc3C(C)(O)C(F)(F)F)[C@@H]12 (stereo partly drawn) 1.49

----------
- Test system: Plasmodium falciparum Dd2 (chloroquine-resistant)
- Experiment Description: In vitro antimalarial growth inhibition assay (SYBR green), Dd2
- Assay type: cell-based
- Condition Description: Plasmodium falciparum; Dd2 chloroquine-resistant, 48 h treatment; read-out: In vitro activity EC50 ± SD P. falciparum Dd2
Would you mind telling me the reported pEC50 of each entry?
One number for each entry, as −log10 of the molar value.

smiles_representation=COC1=CC(c2ccc[nH]2)=N[C@@]12O[C@H](C)C[C@H]1CCCCCCCc3[nH]c(cc3C(C)(c3cc4[nH]c3CCCCCCC[C@@H]3C[C@@H](C)O[C@@]5(N=C(c6ccc[nH]6)C=C5OC)[C@@H]43)C(F)(F)F)[C@@H]12 tested_system="Plasmodium falciparum Dd2 (chloroquine-resistant)" readout_value=5.63
smiles_representation=COC1=CC(c2ccc[nH]2)=N[C@@]12O[C@H](C)C[C@H]1CCCCCCCc3[nH]c(cc3Cc3cc4[nH]c3CCCCCCC[C@@H]3C[C@@H](C)O[C@@]5(N=C(c6ccc[nH]6)C=C5OC)[C@@H]43)[C@@H]12 tested_system="Plasmodium falciparum Dd2 (chloroquine-resistant)" readout_value=6.26

Then this molecule:
Check the records and state pEC50 for COC1=CC(c2ccc[nH]2)=N[C@@]12O[C@H](C)C[C@H]1CCCCCCCc3[nH]c(cc3C(C)=O)[C@@H]12 6.74

Origin of measurements: paper PMC12680612
